Quick list: binding signal per entry.
Target: HNF4alpha2 (COS-7 nuclear extract) (Homo sapiens, UniProt P41235 1-474)
Sequence: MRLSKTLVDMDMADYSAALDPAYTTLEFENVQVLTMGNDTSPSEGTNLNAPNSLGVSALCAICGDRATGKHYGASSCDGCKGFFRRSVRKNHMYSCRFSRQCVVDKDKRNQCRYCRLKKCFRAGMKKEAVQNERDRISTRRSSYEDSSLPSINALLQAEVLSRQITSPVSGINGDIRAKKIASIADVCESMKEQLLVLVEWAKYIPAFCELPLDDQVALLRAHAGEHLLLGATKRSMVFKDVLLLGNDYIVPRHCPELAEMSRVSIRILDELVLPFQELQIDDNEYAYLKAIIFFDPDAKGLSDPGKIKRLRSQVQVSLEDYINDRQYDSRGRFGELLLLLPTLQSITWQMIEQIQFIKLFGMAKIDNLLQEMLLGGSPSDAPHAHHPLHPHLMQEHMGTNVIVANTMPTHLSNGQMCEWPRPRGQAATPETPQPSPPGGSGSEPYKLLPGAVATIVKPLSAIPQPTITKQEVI
Test: protein-binding microarray; COS-7 nuclear extract on double-stranded Agilent 4x180k PBM; binding buffer, salt, pH and temperature not given in the material; high values mean tight binding
Details: chain copies: 2; label: 3' end of strand 1 on the slide; dsDNA, one strand shown
In all, about 18,000 sequences were measured (“log2 normalized intensity”: median about 0.39, highest 2% from about 6.6 on). Shown is part of a subset that was picked to be rich in the highest values.

| Sequence chain | binding signal |
| --- | --- |
| TCACCATATCCCTGAGAGGCCAGTTTGACCGCCTAGGGAGATTAGAGTATCGGTCGA | 2.83 log2 normalized intensity |

Give the value of binding signal reported for the following: `GTAAACTCCCTTTGATGCGGTCAGAGTTCAGCCTAGGGAGATTAGAGTATCGGTCGA`
3.08 log2 normalized intensity

Return binding signal for the following sequence: `GAGGCCAGTTTGACCTTTGCATTCTTACCCGCCTAGGGAGATTAGAGTATCGGTCGA`
5.97 log2 normalized intensity

Return binding signal for the following sequence: `GGGCCCTGACCTCAAGTGACCTTTGACCTCGCCTAGGGAGATTAGAGTATCGGTCGA`
12.1 log2 normalized intensity

State its binding signal: `CCTGAGAGGCCAGTTTGACCTTTGCATTCTGCCTAGGGAGATTAGAGTATCGGTCGA`
7.56 log2 normalized intensity

Give reported binding signal value for `CCAGGCTGATTTAGCTATTTGACCTTCGGCGCCTAGGGAGATTAGAGTATCGGTCGA`
4.92 log2 normalized intensity

Specify binding signal for `GAAACCCTAAACCTGCAAACCTTTGACCTTGCCTAGGGAGATTAGAGTATCGGTCGA` and stop.
5.31 log2 normalized intensity

Provide only the value of recorded binding signal for `ACAAATGAGGGGACAAAGTTCGTGGAAAGTGCCTAGGGAGATTAGAGTATCGGTCGA`
2.91 log2 normalized intensity

Please give the documented binding signal of `TAAGAGCTATCAATGACCCATGTTTGCCCTGCCTAGGGAGATTAGAGTATCGGTCGA`
3 log2 normalized intensity

Fill in binding signal for record `GAGCTTTTACCTCAAATAAAGGTCAGAGTCGCCTAGGGAGATTAGAGTATCGGTCGA`
1.79 log2 normalized intensity

Please give the documented binding signal of `CGACCCCTCGAGGCAACCTTTGACCTGGTAGCCTAGGGAGATTAGAGTATCGGTCGA`
7.48 log2 normalized intensity

Quick one: give measured binding signal for `CCCATCCGCAGTGGGAGAGCAAGGGTCAAGGCCTAGGGAGATTAGAGTATCGGTCGA`
3.57 log2 normalized intensity

Input `TTGAAGTGACTAAATGAGAAGAAATGATGGGCCTAGGGAGATTAGAGTATCGGTCGA` , output reported binding signal.
1.69 log2 normalized intensity

Return binding signal for the following sequence: `GTCAAACTTTGGACCCACTGCAGGATTGGAGCCTAGGGAGATTAGAGTATCGGTCGA`
3.52 log2 normalized intensity

Give reported binding signal value for `AAGTATCTCGGTCAAACCTTTGACCCTTTAGCCTAGGGAGATTAGAGTATCGGTCGA`
6.7 log2 normalized intensity

Check the records and state binding signal for `AGAATGAGACCTGCTAGGCTGCATTCTCTGGCCTAGGGAGATTAGAGTATCGGTCGA`
-0.977 log2 normalized intensity

For the sequence `ATCACTGAAGCGACCCCTCGAGGCAACCTTGCCTAGGGAGATTAGAGTATCGGTCGA` , give its reported binding signal.
1.12 log2 normalized intensity

Input `GTCAAATCACTGAAGCGACCCCTCGAGGCAGCCTAGGGAGATTAGAGTATCGGTCGA` , output reported binding signal.
1.42 log2 normalized intensity

Give binding signal for the following sequence: `GCGTGAGCCACCGCGCCCCGCCCCCAGTGCGCCTAGGGAGATTAGAGTATCGGTCGA`
5.65 log2 normalized intensity
